test protocol: NCI Yeast Anticancer Drug Screen. Data for the rad50 strain (AID 155);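 note: 0% = growth of vehicle-only cultures of the same strain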
run conditions: S. cerevisiae rad50 strain growth inhibition; at 50.0 µM (retest, dose inferred, filed as 5.0); hits give high values
The panel holds about 79,000 compounds, 15% with a hit somewhere; the sample as a whole holds those more often.
Lab note: compare growth inhibition against 90%. Equal or greater, write true (1). Smaller, write false (0).

- compound: "Cn1c(-c2ccc(/C=N\\N3CCN(/N=C/c4ccc(-c5c[n+]6ccccc6n5C)cc4)CC3)cc2)c[n+]2ccccc12"
  assigned category: "true (1)"

Q: Hi team, for `Cc1cc2cc3cc(C)c(N)cc3nc2cc1N` , is the recorded growth inhibition at or above 90%?
A: true (1)

Q: Hi team, for `Clc1ccc2c(c1)N(CCCN1CCCC13CCCCC3)c1ccccc1S2` , is the recorded growth inhibition at or above 90%?
A: false (0)

Q: Hi team, for `CCOc1ccccc1N=Cc1c2ccccc2cc2ccccc12` , is the recorded growth inhibition at or above 90%?
A: true (1)

---

test protocol: NCI Yeast Anticancer Drug Screen. Data for the bub3 strain (AID 167)
run conditions: S. cerevisiae bub3 mutant strain, at 33.0 µM
Compounds without any hit were thinned out: in the full panel of roughly 79,000, 15% have a hit. Active and inactive are the calls of the source. No stated cut-off is given here; in the data, active means growth inhibition above about 70%; inactive means the rest.
Respond only with the outcome that fits, drawn from yes (1) for active, no (0) for inactive

- compound: "O=C(NO)Nc1cc(Cl)cc(Cl)c1"
  assigned category: "yes (1)"

Q: Please share the test call associated with O=C1CSC(c2cccc(Cl)c2)N1c1ccc(-c2ccc(-n3c(-c4ccccc4)nc4ccccc4c3=O)cc2)cc1 (centres undefined) .
A: no (0)

Q: Please share the test call associated with COc1cccc2c1C(=O)c1c(O)c3c(c(O)c1C2=O)C[C@@](O)(C(C)=O)C[C@@H]3OC1CC(OC(C)=O)C(OC(C)=O)C(C)O1 (some centres undefined) .
A: no (0)

Q: Please share the test call associated with `CN1C(=O)c2ccc3ccccc3c2C1=O` .
A: no (0)

Q: Please share the test call associated with CC(C)C(C)/C=C\C(C)C1CCC2C3=CC=C4CC(O)CCC4(C)C3CCC21C (centres undefined) .
A: no (0)

Q: Please share the test call associated with `c1ccc2[nH]c(-c3cscn3)nc2c1` .
A: no (0)

Q: Please share the test call associated with `Cc1nc(-c2cc3cc([N+](=O)[O-])ccc3oc2=O)cs1` .
A: no (0)

Q: Please share the test call associated with CCOC(=O)[C@H]1Nc2ccc(OC)cc2C2c3ccccc3CC21 (some centres undefined) .
A: no (0)

Q: Please share the test call associated with `Cc1nc(Nc2ccccc2[N+](=O)[O-])sc1C(=O)CC(=O)C(=O)Nc1c(C(C)C)cccc1C(C)C` .
A: no (0)

---

test protocol: NCI Yeast Anticancer Drug Screen. Data for the rad14 strain (AID 159);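 note: 0% = growth of vehicle-treated control cultures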
run conditions: S. cerevisiae rad14 strain growth inhibition; at 100.0 µM; hits give high values
Protocol: Growth inhibition of yeast strains with defined genetic alterations is measured as a screen for potential anti-cancer activity. Selected strains with alterations in DNA damage repair or cell cycle control were exposed to compounds and growth inhibition was measured relative to vehicle treated controls. The strain used in this assay is rad14
This is part of a sample that, as a whole, favours compounds with a hit. Of some 79,000 tested, about 15% had one in any assay.
Measured growth inhibition of individual entries
Unit % implied. Number only.

- compound: "Cc1c(C)c(C)c(CSC(=N)N)c(C)c1C"
  unit abbrev: "%"
  data value: 98
- compound: "CCOc1ccc(NC(=O)C2=C(C)NC(C)=C(C(=O)Nc3ccc(OCC)cc3)C2c2cccc([N+](=O)[O-])c2)cc1"
  unit abbrev: "%"
  data value: 86
- compound: "COc1ccc(C(NCCNC(c2ccc(OC)c(OC)c2)c2cc3c(cc2O)OCO3)c2cc3c(cc2O)OCO3)cc1OC (stereo not given)"
  unit abbrev: "%"
  data value: 99
- compound: "CN(C)N=Nc1ccccc1C(=O)NC#N"
  unit abbrev: "%"
  data value: 96

Q: Please report the measured growth inhibition for COC1CCC(O)C(/C=C/[N+](=O)[O-])C1 (stereo not given)
A: 99

Q: Please report the measured growth inhibition for `Cc1cccc2c1nc1ccc(Cl)cc1[n+]2C`
A: 97

Q: Please report the measured growth inhibition for CCCCNC1CCC2(SCCS2)c2[nH]c3ccccc3c21 (stereo not given)
A: 9

Q: Please report the measured growth inhibition for `CCCCC/C(=C(\C#N)C(=O)OCC)c1ccccc1`
A: 5

Q: Please report the measured growth inhibition for `CC(=O)Nc1ccc2c(c1)-c1ccccc1C2=O`
A: 82

Q: Please report the measured growth inhibition for COc1cc([C@@H]2c3cc4c(cc3[C@H](OC3OC5COC(C(C)C)OC5C(O)C3O)C3COC(=O)[C@@H]32)OCO4)cc(OC)c1O (stereo not given in full)
A: 8
